tested on: clinically isolated HIV strain H; format: cell-based; conditions: FR=EC50(mutant strain)/EC50(HIV-1 strain LAI)
Listed compounds paired with reported fold resistance (FR), strain H
VALUE KIND: fold resistance (FR), strain H

>  <COMPOUND>
CC(C)CN(C[C@@H](O)[C@H](Cc1ccccc1)NC(=O)O[C@H]1CCOC1)S(=O)(=O)c1ccc2nc(NC(=O)CN3CCN(C)CC3)sc2c1.O=C(O)C(F)(F)F

>  <QUANTITATIVE RESULT>
0.9

$$$$
>  <COMPOUND>
CC(C)CN(CC(O)C(Cc1ccccc1)NC(=O)OC1COC2OCCC12)S(=O)(=O)c1ccc2nc(NC(=O)CN(C)C)sc2c1 (stereo not drawn) [Compound 11]

>  <QUANTITATIVE RESULT>
0.9

$$$$
>  <COMPOUND>
CC(C)CN(C[C@@H](O)[C@H](Cc1ccccc1)NC(=O)OCc1cccnc1)S(=O)(=O)c1ccc2nc(NCCN(C)C)sc2c1

>  <QUANTITATIVE RESULT>
2.0

$$$$
